Experiment: Lung distribution study
Assay type: in vivo, Sprague-Dawley rats
Conditions: male, Sprague-Dawley, rat, plasma, oral, 10 mg/kg, exposure values
ENDPOINT LABEL: AUC(0-t) (ng·h/mL)

(P) CCc1cc(C(=O)Nc2sc3c(c2C(N)=O)CC(C)(C)OC3(C)C)n[nH]1
(Q) CC1(C)Cc2c(sc(NC(=O)C3(CO)CC3)c2C(N)=O)C(C)(C)O1
(R) CC1(C)Cc2c(sc(NC(=O)c3[nH]ncc3Cl)c2C(N)=O)C(C)(C)O1
Exam item: Highest to lowest AUC(0-t): rank the entries shown above. Answer with the labels in sequence, matching the requested order.
Marked response: Q, R, P
(Q: 38900 ng·h/mL, R: 439 ng·h/mL, P: 290 ng·h/mL)

* * *

Biological target: CYP3A4 (Homo sapiens, UniProt P08684)
Construct: tissue BD Gentest
Sequence (P08684 whole entry): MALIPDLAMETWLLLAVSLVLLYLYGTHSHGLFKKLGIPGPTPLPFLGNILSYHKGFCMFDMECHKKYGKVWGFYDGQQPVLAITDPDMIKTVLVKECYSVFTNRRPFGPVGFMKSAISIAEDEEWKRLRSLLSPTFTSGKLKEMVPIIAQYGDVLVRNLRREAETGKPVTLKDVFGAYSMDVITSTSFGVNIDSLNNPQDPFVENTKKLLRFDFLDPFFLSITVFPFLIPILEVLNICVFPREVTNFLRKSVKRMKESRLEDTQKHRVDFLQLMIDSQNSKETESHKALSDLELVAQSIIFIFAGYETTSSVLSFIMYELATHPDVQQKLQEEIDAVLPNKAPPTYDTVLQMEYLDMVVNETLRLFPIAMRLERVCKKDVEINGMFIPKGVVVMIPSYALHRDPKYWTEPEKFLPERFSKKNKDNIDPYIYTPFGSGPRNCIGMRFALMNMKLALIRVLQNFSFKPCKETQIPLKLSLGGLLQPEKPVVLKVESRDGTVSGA
Assay: Time dependent inhibition (TDI) of CYP3A4 in human liver microsomes
Settings: both without and with preincubation, Midazolam or testosterone as probe substrate, human liver microsomes
ENDPOINT LABEL: IC50

Exam item: Reported IC50, molecule CC1(C)Cc2c(sc(NC(=O)c3ccn[nH]3)c2C(N)=O)C(C)(C)O1 [Compound 2] : ____
Marked response: > 100 µM

* * *

Target: CFTR-S549N (Homo sapiens, UniProt P13569, S549N)
Sequence (P13569 whole entry S549N): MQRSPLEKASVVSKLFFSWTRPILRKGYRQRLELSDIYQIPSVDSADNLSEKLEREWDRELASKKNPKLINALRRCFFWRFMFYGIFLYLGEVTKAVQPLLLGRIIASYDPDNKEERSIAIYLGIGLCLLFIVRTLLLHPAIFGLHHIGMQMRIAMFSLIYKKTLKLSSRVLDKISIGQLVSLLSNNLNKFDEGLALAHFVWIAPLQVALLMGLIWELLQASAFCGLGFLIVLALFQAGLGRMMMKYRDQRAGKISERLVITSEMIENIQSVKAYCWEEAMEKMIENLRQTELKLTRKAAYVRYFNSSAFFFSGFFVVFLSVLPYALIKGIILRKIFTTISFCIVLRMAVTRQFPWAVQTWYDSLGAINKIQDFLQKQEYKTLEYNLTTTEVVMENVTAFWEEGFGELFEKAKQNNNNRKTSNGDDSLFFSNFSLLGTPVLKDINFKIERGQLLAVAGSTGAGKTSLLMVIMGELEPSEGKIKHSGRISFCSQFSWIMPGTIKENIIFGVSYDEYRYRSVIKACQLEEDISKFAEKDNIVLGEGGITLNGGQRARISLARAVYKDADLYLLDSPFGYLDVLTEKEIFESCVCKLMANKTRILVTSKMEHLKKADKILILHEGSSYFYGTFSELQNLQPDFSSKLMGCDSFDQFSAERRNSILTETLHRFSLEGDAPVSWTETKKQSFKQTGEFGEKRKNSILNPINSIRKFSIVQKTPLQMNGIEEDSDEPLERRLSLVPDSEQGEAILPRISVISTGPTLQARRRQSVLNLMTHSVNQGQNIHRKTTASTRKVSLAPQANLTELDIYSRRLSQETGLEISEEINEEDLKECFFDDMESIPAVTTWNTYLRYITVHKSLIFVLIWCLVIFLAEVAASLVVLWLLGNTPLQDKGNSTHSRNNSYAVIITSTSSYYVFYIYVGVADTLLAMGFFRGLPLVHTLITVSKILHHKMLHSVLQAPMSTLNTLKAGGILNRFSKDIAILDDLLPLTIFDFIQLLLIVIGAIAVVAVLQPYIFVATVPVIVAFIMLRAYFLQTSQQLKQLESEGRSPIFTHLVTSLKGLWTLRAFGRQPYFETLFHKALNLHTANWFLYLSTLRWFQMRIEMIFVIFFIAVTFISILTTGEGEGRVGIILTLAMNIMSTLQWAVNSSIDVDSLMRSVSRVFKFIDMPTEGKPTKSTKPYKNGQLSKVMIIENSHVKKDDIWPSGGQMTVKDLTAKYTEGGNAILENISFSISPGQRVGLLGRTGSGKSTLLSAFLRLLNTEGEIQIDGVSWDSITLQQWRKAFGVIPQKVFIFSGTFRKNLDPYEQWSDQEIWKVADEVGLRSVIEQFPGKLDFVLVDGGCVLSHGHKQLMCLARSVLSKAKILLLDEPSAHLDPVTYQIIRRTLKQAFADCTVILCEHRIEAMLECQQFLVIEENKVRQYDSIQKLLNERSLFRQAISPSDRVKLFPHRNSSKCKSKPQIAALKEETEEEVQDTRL
Assay: YFP-halide influx assay for the CFTR-S549N
Settings: CFTR-S549N mutant; read-out: EC50 measured by YFP-halide influx assay for the CFTR-S549N
ENDPOINT LABEL: EC50 (nM)

• CC1(C)Cc2c(sc(NC(=O)c3n[nH]cc3Br)c2C(N)=O)C(C)(C)O1 = 164

(a) CCOCCc1c[nH]nc1C(=O)Nc1sc2c(c1C(N)=O)CC(C)(C)OC2(C)C
(b) CC1(C)Cc2c(sc(NC(=O)c3n[nH]cc3C3COCCO3)c2C(N)=O)C(C)(C)O1 (stereo not shown)
(c) CC1(C)Cc2c(sc(NC(=O)c3n[nH]cc3C3=CCOCC3)c2C(N)=O)C(C)(C)O1
Exam item: Place the items in sequence of falling EC50. Would you mind listing the labels in the order requested?
Marked response: c, b, a

* * *

Molecular target: CFTR-G178R (Homo sapiens, UniProt P13569, G178R)
Sequence (P13569 whole entry G178R): as the sequence (P13569 whole entry S549N) above, with G178R, N549S counted along it
Experiment: YFP-halide influx assay for the CFTR-G178R
Conditions: read-out: EC50 measured by YFP-halide influx assay for the CFTR-G178R
ENDPOINT LABEL: EC50 (nM)

Solved entries:
- COCc1c[nH]nc1C(=O)Nc1sc2c(c1C(N)=O)CC(C)(C)OC2(C)C [Compound 105]: 54.4
- CC1(C)Cc2c(sc(NC(=O)C3(CO)CC3)c2C(N)=O)C(C)(C)O1 [Compound 9]: 699
- CC1(C)Cc2c(sc(NC(=O)c3cnco3)c2C(N)=O)C(C)(C)O1 [Compound 136]: 786
- CC1(C)Cc2c(sc(NC(=O)c3ccnn3CC(F)(F)F)c2C(N)=O)C(C)(C)O1 [Compound 151]: 221
- CC(C)OCCOc1c[nH]nc1C(=O)Nc1sc2c(c1C(N)=O)CC(C)(C)OC2(C)C [Compound 101]: 347
- CC1(C)Cc2c(sc(NC(=O)[C@H](O)C(C)(C)C)c2C(N)=O)C(C)(C)O1 [Compound 77]: 2210
- CC(C)CC(O)C(=O)Nc1sc2c(c1C(N)=O)CC(C)(C)OC2(C)C (stereo not shown) [Compound 46]: 19
- COCCOc1cc(C(=O)Nc2sc3c(c2C(N)=O)CC(C)(C)OC3(C)C)n[nH]1 [Compound 55]: 58.3

(A) CC1(C)Cc2c(sc(NC(=O)C3(O)CCOCC3)c2C(N)=O)C(C)(C)O1 [Compound 154]
(B) CC(C)(C)CC(O)C(=O)Nc1sc2c(c1C(N)=O)CC(C)(C)OC2(C)C (stereo not shown) [Compound 106]
Exam item: Hi! Which is lower in terms of EC50, the first one A or the second one B ? Kindly give the label for the entry you pick.
Marked response: B
(B: 26 nM, A: 3330 nM)

(a) CCCc1c[nH]nc1C(=O)Nc1sc2c(c1C(N)=O)CC(C)(C)OC2(C)C [Compound 71]
(b) COCc1cc(C(=O)Nc2sc3c(c2C(N)=O)CC(C)(C)OC3(C)C)n[nH]1 [Compound 42]
Exam item: # query: argmin of EC50 over a and b Give the chosen item's label as your response.
Marked response: a
(a: 89.3 nM, b: 156 nM)

(I) CC(C)C(O)C(=O)Nc1sc2c(c1C(N)=O)CC(C)(C)OC2(C)C (single isomer, unassigned) [Compound 52]
(II) CC1(C)Cc2c(sc(NC(=O)c3ccn[nH]3)c2C(N)=O)C(C)(C)O1 [Compound 2]
Exam item: Compare the recorded EC50 of I and II ; state which is larger. Give the label under which the chosen entry appears.
Marked response: II
(II: 56.9 nM, I: 39.7 nM)
